Tested on: Plasmodium berghei
Experiment: Screen against P. berghei liver stage (PbLuc), transformed with Luciferase, at 10uM
Assay type: functional, HepG2
Details: tested at 10 uM
In all, about 69,000 compounds went through this assay and about 8,600 (12%) showed an effect of 50% or more. What follows is part of a selection rich in strong results, with near analogues and random picks from the rest.
Below is a list of entries, each paired with its recorded INHIBITION value.

Ask: State measured INHIBITION of the molecule CCN1CCCC1CNCc1cc2cc(OC)ccc2[nH]c1=O (stereo unspecified) with Plasmodium berghei.
Result: 72.2%

Ask: Check Plasmodium berghei data and give INHIBITION for COc1ccc2cc(CN(C)CCN3CCCCC3=O)c(=O)[nH]c2c1 .
Result: -15.1%

Ask: Given CCN1CCCC1CNC(=O)CCSc1ccc2c(c1)OCCO2 (stereo unspecified) , report its INHIBITION on Plasmodium berghei.
Result: 38.5%

Ask: Report measured INHIBITION on Plasmodium berghei; entry: CCN1CCCC1CNCc1cc2cc3c(cc2[nH]c1=O)OCCO3 (stereo unspecified)
Result: 58.2%

Ask: Retrieve INHIBITION on Plasmodium berghei; query COc1ccc2[nH]c(=O)c(CN(C)CCN3CCCC3)cc2c1
Result: 63.9%

Ask: Provide measured INHIBITION on Plasmodium berghei for CSc1ccc2cc(CN(C)CCc3cn[nH]c3)c(=O)[nH]c2c1 please.
Result: 20.8%

---

Tested on: Plasmodium berghei
Assay: Screen against P. berghei liver stage (PbLuc), transformed with Luciferase, at 10uM
Type: functional, HepG2
Conditions: tested at 10 uM
About 8,600 (12%) of roughly 69,000 compounds showed an effect of 50% or more. The sample as a whole holds a higher share of strong results than the screen did.
attribute-measured: INHIBITION (%)
Report only the number, with the unit % understood.

molecule: CNC(=O)NC(=O)CSc1ccc2c(c1)CCC2
reading: 54.3
//
molecule: Cc1ccc2c(n1)N(C)CCN(Cc1ccco1)C2
reading: 3.88
//
molecule: CS(=O)(=O)CCNC(=O)Nc1ccc(Cl)cc1-n1cccc1
reading: 35.4

Ask: Identify measured INHIBITION associated with CS(=O)(=O)c1ccc(NC(=O)CSc2ccc3c(c2)CCC3)cc1
Result: 31.2

Ask: Item Cc1cc(C(=O)NC2CCN(c3ncccc3C#N)CC2)no1 : provide INHIBITION
Result: 5.23

Ask: Report measured INHIBITION; entry is O=C(C(c1ccccc1)S(=O)(=O)c1ccccn1)N1CCCC1 (stereo unspecified)
Result: 14.2

---

System: Plasmodium berghei
Assay: Screen against P. berghei liver stage (PbLuc), transformed with Luciferase, at 10uM
Type: functional, HepG2
Conditions: tested at 10 uM
Among all 69,000 compounds or so, about 8,600 (12%) showed an effect of 50% or more. This excerpt belongs to a sample that is enriched for strong results.
Where INHIBITION equals or exceeds 30%, the correct label is yes (1); where it does not, the label is no (0).

molecule: Cc1ccc(Sc2nccn(C)c2=O)cc1
assigned-category: no (0)

Moving on to the next molecule.
Ask: hey, is INHIBITION for this one >= 30%? CCCc1nc(CN2CCN(Cc3noc(CCC)n3)CC2)no1
Result: no (0)
